B1: PTPRD (parent)
chain: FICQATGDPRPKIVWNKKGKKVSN

variants of: B1; test: protein stability index of a GFP-peptide fusion (GPS, HEK-293T) (PSI 1-6); higher = more stable; conditions: c terminus: a fixed tail appended;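 further: lentivirally expressed fusions sorted by FACS into six bins by GFP to DsRed ratio, PSI derived from sequencing read proportions per bin multiplied by bin number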
measuredQuantity: protein stability index
Output spec: single numeric token, no unit.

Using known records, supply protein stability index for FNCQATGDPRPKIVWNKKGKKVSN [I2N]
4.27

Look up protein stability index of FICQATGDPRTKIVWNKKGKKVSN [P11T] and report it.
2.07

Identify measured protein stability index associated with FICQATGDPRPKMVWNKKGKKVSN [I13M]
1.51

Tell us which protein stability index value is on record for FICQATGEPRPKIVWNKKGKKVSN [D8E]
1.91

For FICQATGDPRPKIVWNKKGKCVSN [K21C] , write its protein stability index.
2.26

Recall and state the measured protein stability index for FICQATGDPRPKIMWNKKGKKVSN [V14M] .
1.67

Provide measured protein stability index value, entry: FICQATGDPFPKIVWNKKGKKVSN [R10F]
1.89

Specify protein stability index for FICQATGDPRPKITWNKKGKKVSN [V14T] and stop.
2.5
